Data provenance: ChEMBL document CHEMBL1139800

System: Mycobacterium tuberculosis
Assay: Antitubercular activity against Mycobacterium tuberculosis H37Rv by MABA assay
Assay type: functional
Measured Metric: log10 of MIC (log10 of the value in µg/mL)

# Molecule, Endpoint Result
rows = [
    ("CN(C)CCOc1ccc(C(c2ccccc2)c2ccccc2)c2ccccc12", 1.10),
    ("CN(C)CCOc1ccc2ccccc2c1C(c1ccccc1)c1ccc(Cl)cc1 (stereo unspecified)", 0.49),
    ("CO[C@H]1/C=C/O[C@@]2(C)Oc3c(C)c(O)c4c(O)c(c(/C=N/N5CCN(C)CC5)c(O)c4c3C2=O)NC(=O)/C(C)=C\\C=C\\[C@H](C)[C@H](O)[C@@H](C)[C@@H](O)[C@@H](C)[C@H](OC(C)=O)[C@@H]1C [RIFAMPIN]", -0.70),
    ("CCN(CC)CCOc1ccc2ccccc2c1C(c1ccccc1)c1ccc(Cl)cc1 (stereo unspecified)", 0.49),
    ("Fc1ccc(C(c2ccccc2)c2ccc(OCCN3CCCCCC3)c3ccccc23)cc1 (stereo unspecified)", 1.10),
    ("Clc1ccc(C(c2ccccc2)c2c(OCCN3CCCC3)ccc3ccccc23)cc1 (stereo unspecified)", 0.49),
    ("CCN(CC)CCOc1ccc2ccccc2c1C(c1ccccc1)c1ccccc1", 0.80),
    ("c1ccc(C(c2ccccc2)c2c(OCCN3CCCCC3)ccc3ccccc23)cc1", 0.80),
    ("CCN(CC)CCOc1ccc(C(c2ccccc2)c2ccc(Cl)cc2)c2ccccc12 (stereo unspecified)", 1.10),
    ("c1ccc(C(c2ccccc2)c2ccc(OCCN3CCCCCC3)c3ccccc23)cc1", 1.10),
    ("Clc1ccc(C(c2ccccc2)c2c(OCCN3CCCCC3)ccc3ccccc23)cc1 (stereo unspecified)", 0.49),
    ("c1ccc(C(c2ccccc2)c2c(OCCN3CCCCCC3)ccc3ccccc23)cc1", 0.80),
    ("c1ccc(C(c2ccccc2)c2c(OCCN3CCCC3)ccc3ccccc23)cc1", 0.80),
    ("c1ccc(C(c2ccccc2)c2ccc(OCCN3CCCC3)c3ccccc23)cc1", 0.80),
    ("CCN(CC)CCOc1ccc2ccccc2c1C(c1ccccc1)c1ccc(F)cc1 (stereo unspecified)", 0.80),
    ("NNC(=O)c1ccncc1 [ISONIAZID]", -1.60),
]
